Data origin, for the record: PubChem BioAssay (NCI)

Reported TGI is given for each of the following compounds.
Test system: MDA-MB-435
Assay: NCI tumour cell line growth inhibition, 48 h
Measurement kind: TGI

INSERT INTO assay_data (compound, system_tested, measurement_kind, measurement) VALUES
  ('CCC1c2[nH]c3ccccc3c2C[C@H]2C(=O)NC(CCC(=O)OC(C)(C)C)C(=O)N12 (stereo partly specified)', 'MDA-MB-435', 'TGI', '> 100 µM'),
  ('O=[N+]([O-])C(C(Cl)=C(Cl)Cl)=C(N1CCOCC1)N1CCOCC1', 'MDA-MB-435', 'TGI', '> 100 µM'),
  ('CC(C)(C)C1=CC(=CC=C2C=CN(CCCCCCCCCCCO)C=C2)C=C(C(C)(C)C)C1=O', 'MDA-MB-435', 'TGI', '3.4 µM'),
  ('CC[C@H](C)[C@H](NC(=O)[C@H]1CCCCN1C)C(=O)N(C)[C@H](CCc1nc(C(=O)N[C@@H](Cc2ccccc2)C[C@H](C)C(=O)OC)cs1)C(C)C', 'MDA-MB-435', 'TGI', '0.185 µM'),
  ('O=C1SCC(O)=C1/C=N/Nc1nc2ccccc2o1', 'MDA-MB-435', 'TGI', '> 100 µM'),
  ('COc1ccc(C2CC(=O)c3c(OC)cc(OC)cc3O2)cc1 (stereo unspecified)', 'MDA-MB-435', 'TGI', '> 100 µM'),
  ('c1ccc2c(c1)nc1n2CNCC1', 'MDA-MB-435', 'TGI', '> 100 µM'),
  ('CC[C@@H]1/C=C/C=C/C[C@H](C)[C@@H](O)[C@](C)(O)C(=O)[C@H](C)[C@@H](O)[C@H](C)C(=O)[C@H](C)[C@@H](O)[C@H](C)/C=C/C(=O)O[C@H]2[C@@H](C)[C@@H](CC1)O[C@]1(O[C@H](CC(C)O)[C@H](C)CC1=O)[C@@H]2C (stereo partly specified)', 'MDA-MB-435', 'TGI', '10.6 µM'),
  ('S=C(/N=c1/sc(Nc2ccccc2)nc2sc3c(c12)CCCC3)Nc1ccccc1', 'MDA-MB-435', 'TGI', '> 62.5 µM'),
  ('O=C1NC(Nc2cccc(Cl)c2)=N/C1=C\c1ccc(Cl)c(Cl)c1', 'MDA-MB-435', 'TGI', '17.6 µM'),
  ('C=C1C(=O)O[C@H]2[C@H]1CC/C(COC(=O)/C=C\C(=O)NCc1ccc(Cn3c(=O)sn(-c4ccc(C#N)cc4)c3=O)cc1)=C\CC[C@@]1(C)O[C@@H]21', 'MDA-MB-435', 'TGI', '1.5 µM'),
  ('COC(=O)CCC(=O)NC1c2cccc3cccc(c23)Cn2c(=O)n(C)c(=O)n21 (stereo unspecified)', 'MDA-MB-435', 'TGI', '> 100 µM'),
  ('Nc1ccc(C(=O)Nn2c(-c3ccccc3)nc3ccccc3c2=O)cc1', 'MDA-MB-435', 'TGI', '> 100 µM'),
  ('COc1cc2c3c(n(CCCCl)c(=O)c2cc1OC)-c1ccccc1C3=O', 'MDA-MB-435', 'TGI', '> 100 µM'),
  ('CN1C(NC(=O)c2ccc(Cl)nc2)=NS(=O)(=O)c2cc(Cl)ccc21', 'MDA-MB-435', 'TGI', '> 100 µM'),
  ('C1=C2C3=[N+](CCCC3)CC2Cc2ccsc21 (stereo unspecified)', 'MDA-MB-435', 'TGI', '> 100 µM'),
  ('CCCCCCCCCCCCCCCCCc1cccc(OCOCCOC)c1CO', 'MDA-MB-435', 'TGI', '> 100 µM'),
  ('CNC1C(=O)C(C)C(O)(C(CC(C)C(O)/C=C/C=C/CNC(=O)C(C)(C)C(O)\C(C)=C/C=C\C=C\Cc2cnc(C)o2)OC)C12C(=O)OC2COC (stereo unspecified) (tested in a mixture with another compound)', 'MDA-MB-435', 'TGI', '> 100 µM'),
  ('CC/C(=N/O)c1ccc(Br)s1', 'MDA-MB-435', 'TGI', '> 100 µM'),
  ('Cn1cc(-c2csc(-c3cccc(F)c3)n2)c2cccnc21', 'MDA-MB-435', 'TGI', '33.1 µM'),
  ('CCSc1nc(N2CCOCC2)c2cn[nH]c2n1', 'MDA-MB-435', 'TGI', '> 100 µM');

* * *

System: MCF7 breast
Experiment: NCI tumour cell line growth inhibition, 48 h
Reported TGI is given for each of the following compounds.
Measurement kind: TGI

INSERT INTO measurements (compound, measurement) VALUES
  ('O=C1SCC(O)=C1/C=N/Nc1nc2ccccc2o1', '> 100 µM'),
  ('CCC1c2[nH]c3ccccc3c2C[C@H]2C(=O)NC(CCC(=O)OC(C)(C)C)C(=O)N12 (some centres not stated)', '> 100 µM'),
  ('CC[C@H](C)[C@H](NC(=O)[C@H]1CCCCN1C)C(=O)N(C)[C@H](CCc1nc(C(=O)N[C@@H](Cc2ccccc2)C[C@H](C)C(=O)OC)cs1)C(C)C', '> 25 µM'),
  ('Cn1cc(-c2csc(-c3cccc(F)c3)n2)c2cccnc21', '43.4 µM'),
  ('COc1ccc2c(c1)OCc1c-2oc2ccccc2c1=O', '> 100 µM'),
  ('O=c1[nH]nc(-c2cccc(Br)c2)[nH]1', '> 100 µM'),
  ('CC12CCCC(CC(=O)c3[nH]c4ccccc4c31)C2 (configuration not stated)', '> 56.7 µM'),
  ('COc1cc2c(/C=C3/C(=O)Nc4cccc(Cl)c43)c(Cl)n(Cc3ccccc3)c2cc1C', '> 45.3 µM'),
  ('C=C1CC[C@@]2(OC1)OC1C[C@H]3[C@@H]4CC=C5C[C@@H](O)CC(OC6OCC(OC(=O)[C@@H](O)[C@@H](C)CC)C(OC(C)=O)C6OC6OC(C)C(O)C(O)C6O)[C@]5(C)[C@H]4CC[C@]3(C)C1[C@@H]2C (some centres not stated)', '3.23 µM'),
  ('CC(C)CCN=c1cc2n(-c3ccc(Cl)cc3)c3ccccc3nc-2cc1Nc1ccc(Cl)cc1', '> 42 µM'),
  ('Cc1[nH]c(N=Nc2ccccc2)nc1N=Nc1ccccc1', '15.3 µM'),
  ('Cc1ccccc1Nc1cn(COCc2ccccc2)c(=O)[nH]c1=O', '> 100 µM');

* * *

Reported GI50 is given for each of the following compounds.
System: OVCAR-8 ovarian
Experiment: NCI tumour cell line growth inhibition, 48 h
Measurement kind: GI50

INSERT INTO results (molecule, system_tested, measurement) VALUES
  ('CC(=O)[O][Hg][c]1c(C)c(C)c(C)c(C)c1C', 'OVCAR-8 ovarian', '1.93 µM'),
  ('Cn1cc(C2=C(c3cn(CCCN=C(N)N)c4ccccc34)C(=O)NC2=O)c2ccccc21', 'OVCAR-8 ovarian', '> 25 µM'),
  ('COc1ccc(-c2nc(-c3nc4ccc(C)cc4[nH]3)c3ccccn23)cc1', 'OVCAR-8 ovarian', '2.05 µM');

* * *

Tested on: UO-31 renal
Test: NCI tumour cell line growth inhibition, 48 h
Reported TGI is given for each of the following molecules.
Measurement kind: TGI

INSERT INTO measurements (molecule, measurement) VALUES
  ('CC(=O)[O][Hg][c]1c(C)c(C)c(C)c(C)c1C', '7.74 µM'),
  ('C[N+](C)(N)CCC[N+](C)(C)N', '> 100 µM'),
  ('Cc1cc(NS(=O)(=O)c2ccc(NC(=O)c3cccc4c(=O)c5ccccc5[nH]c34)cc2)no1', '72.8 µM');

* * *

Test system: SF-295 CNS
Test: NCI tumour cell line growth inhibition, 48 h
Measurement kind: TGI

INSERT INTO measurements (compound, system_tested, measurement) VALUES
  ('COc1cc(C2c3cc4c(cc3[C@@H](Nc3ccccc3)C3CO[C@@H](OC)[C@H]23)OCO4)cc(OC)c1O (stereo partly specified)', 'SF-295 CNS', '12.4 µM'),
  ('O=c1[nH]nc(-c2cccc(Br)c2)[nH]1', 'SF-295 CNS', '> 100 µM'),
  ('COC12C=CC(CC1)C(C)(C)C2=O (stereo unspecified)', 'SF-295 CNS', '> 100 µM'),
  ('CC(=O)NNc1nc(C)c(C(/C=C/c2cccc([N+](=O)[O-])c2)=N/NC(=S)NN)s1', 'SF-295 CNS', '> 100 µM'),
  ('Clc1ccc2c(NCCCCN=Cc3ccccc3)ccnc2c1', 'SF-295 CNS', '28 µM'),
  ('N#CCCN(CCC#N)c1ccc(C(=O)NN)cc1', 'SF-295 CNS', '> 100 µM'),
  ('NCCc1nc(-c2nc(C(=O)O)cs2)cs1', 'SF-295 CNS', '> 100 µM'),
  ('O=c1c2ccccc2nnn1-c1n[nH]c2ccccc12', 'SF-295 CNS', '> 100 µM'),
  ('NC1C2(CCCCCC2)NC(=O)C12CCCCCC2 (stereo unspecified)', 'SF-295 CNS', '> 100 µM'),
  ('Cc1cccc2c(N)c3cccc(C(=O)NCCCNCCN)c3nc12', 'SF-295 CNS', '20.9 µM'),
  ('Clc1cccc(Cl)c1C1SCC2=Nc3ccccc3CN21 (stereo unspecified)', 'SF-295 CNS', '33.8 µM'),
  ('O=c1[nH]c(=O)n(C2CC(O)C(CS)O2)cc1F (stereo unspecified)', 'SF-295 CNS', '> 100 µM'),
  ('COc1cc2c3c(n(CCCCl)c(=O)c2cc1OC)-c1ccccc1C3=O', 'SF-295 CNS', '13.3 µM'),
  ('O=C(O)c1cc(N=Nc2ccc([As](=O)(O)O)cc2)ccc1O', 'SF-295 CNS', '> 100 µM'),
  ('NCCCNCCSSCCCCS(=O)O', 'SF-295 CNS', '> 100 µM'),
  ('COc1ccc(-c2c(C#N)c(NC(=S)NC(=O)c3ccccc3)nc3c2CCCC3)cc1OC', 'SF-295 CNS', '> 100 µM');
